Values from patent US7902361B2

# studyTarget: CDK4/cyclin D1 (Homo sapiens, UniProt P11802)
# Sequence (P11802 whole entry, species assumed): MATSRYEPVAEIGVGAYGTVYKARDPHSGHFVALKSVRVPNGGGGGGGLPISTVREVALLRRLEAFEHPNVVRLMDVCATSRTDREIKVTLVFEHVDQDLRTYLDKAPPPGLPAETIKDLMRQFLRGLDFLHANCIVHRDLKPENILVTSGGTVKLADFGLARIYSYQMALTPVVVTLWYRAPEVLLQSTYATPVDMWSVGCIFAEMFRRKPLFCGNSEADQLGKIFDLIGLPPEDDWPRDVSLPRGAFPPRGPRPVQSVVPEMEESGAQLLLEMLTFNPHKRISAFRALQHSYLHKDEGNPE
# Sequence (P24385 whole entry partner, species assumed): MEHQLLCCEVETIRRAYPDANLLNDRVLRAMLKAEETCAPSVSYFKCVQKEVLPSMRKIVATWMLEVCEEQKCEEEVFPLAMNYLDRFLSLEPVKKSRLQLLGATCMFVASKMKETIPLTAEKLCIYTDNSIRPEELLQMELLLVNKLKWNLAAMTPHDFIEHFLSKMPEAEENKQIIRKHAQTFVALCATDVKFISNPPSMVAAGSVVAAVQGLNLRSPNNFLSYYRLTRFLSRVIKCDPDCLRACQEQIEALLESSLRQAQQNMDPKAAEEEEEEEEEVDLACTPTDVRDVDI
# methodNotes: Kinase assay CDK4/cyclin D1
# assayConditions: Ki calculated (Cheng-Prusoff) from experimentally determined IC50 and Km,ATP; read-out: Kinase Inhibition Ki CDK4 - cyclin D1
reportedEndpoint: Ki (nM)

Example entries and their recorded answers appear below.
substanceSmiles | Ki [nM]
Cc1c(-c2ccnc(Nc3cc(N)cc(C(F)(F)F)c3)n2)sc(=O)n1C | 170
Cc1[nH]c(=O)sc1-c1ccnc(Nc2cccc([N+](=O)[O-])c2)n1 | 230
Cc1c(-c2ccnc(Nc3cccc([N+](=O)[O-])c3)n2)sc(=O)n1C | 300
CCn1c(C)c(-c2ccnc(Nc3ccc(F)cc3)n2)sc1=O | 5000
CCn1c(C)c(-c2ccnc(Nc3cccc([N+](=O)[O-])c3)n2)sc1=O | 870

I. Cc1c(-c2ccnc(Nc3ccc(S(=O)(=O)NCCO)cc3)n2)sc(=O)n1C
II. Cc1c(-c2ccnc(Nc3cccc(CNS(C)(=O)=O)c3)n2)sc(=O)n1C
From the items above, decide which of I and II has the lower Ki reading. // return label of chosen record
II
(II: 110 nM, I: 830 nM)
